B1: HDV Ribozyme (parent)
chain: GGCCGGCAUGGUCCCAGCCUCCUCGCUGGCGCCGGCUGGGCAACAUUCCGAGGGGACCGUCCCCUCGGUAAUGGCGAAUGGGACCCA

# Variants of: B1
# experiment_description: self-cleavage, relative activity (ratio to wild type); higher = more cleavage; co-transcriptional
Each entry gets not met if its self-cleavage stays under 0.2, and met if its self-cleavage is 0.2 or above.

Prompt: Evaluate G52A C85G : self-cleavage at minimum 0.2?
Response: met

Prompt: Dear colleague, could you confirm whether C22A C75A has self-cleavage at or above 0.2?
Response: not met

Prompt: # check: self-cleavage of G17A C36G is greater than or equal to 0.2
Response: not met

Prompt: Textbook exercise: given the entry C3U U47G , state whether its self-cleavage is greater than or equal to 0.2.
Response: met

Prompt: Does self-cleavage meet or surpass 0.2 for G55C A71G ?
Response: met

Prompt: Can G10C G52U be said to have self-cleavage at or above 0.2?
Response: met

Prompt: Identify whether the reported self-cleavage of the following variant is 0.2 or greater: C18A C61U
Response: met

Prompt: # check: self-cleavage of G2C G55U is greater than or equal to 0.2
Response: not met

Prompt: Confirm if self-cleavage reported for the variant U60G G76U is 0.2 or above.
Response: met

Prompt: Quick check: does A8G U60A have self-cleavage greater than or equal to 0.2?
Response: met

Prompt: Hi team, for C22G C49G , is the recorded self-cleavage at or above 0.2?
Response: not met

Prompt: Entry G35U G53A : is its self-cleavage no less than 0.2?
Response: met

Prompt: Please tell me: is the variant G17C A71G at or over 0.2 in terms of self-cleavage?
Response: met

Prompt: Check this variant for self-cleavage at or above 0.2: C7G A45G
Response: met

Prompt: hey, is self-cleavage for this one >= 0.2? G54U A56U
Response: met

Prompt: Is self-cleavage for C15A C63U at or above 0.2?
Response: met

Prompt: For this variant, is measured self-cleavage 0.2 or higher? G25U A78U
Response: not met

Prompt: Quick check: does C48G C75G have self-cleavage greater than or equal to 0.2?
Response: not met

Prompt: Say whether G2C A8G shows self-cleavage of 0.2 or more.
Response: not met

Prompt: Please check the record C3U C49U and state if its self-cleavage is at or above 0.2.
Response: met

Prompt: Kindly determine if self-cleavage recorded for A51C U65C is above or exactly 0.2.
Response: met
